Ref: paper PMC7059030

System: HCV (JFH-1 strain) in Huh7.5 cells
assay text: Cell-based HCV replicon assay (RT-qPCR of HCV RNA in infected Huh7.5 cells)
Parameters: species or system hepatitis C virus
setup conditions: Huh7.5 cells infected with HCV (JFH-1), three days, HCV RNA by quantitative RT-PCR
assay readout: EC50 (µM)
Enter your answer as a number in µM; do not include the unit.

Look up EC50: `O=C(NN=Cc1ccccc1F)c1c[nH]c2ccc(OCc3ccccc3)cc2c1=O` 120

----------
assay text: XTT cytotoxicity assay
Assay type: cell-based
setup conditions: human, Huh-7.5 cells
assay readout: CC50 at 72 h

Look up CC50 at 72 h: `CSc1ccc(C=NNC(=O)c2c[nH]c3ccc(OCc4ccccc4)cc3c2=O)cc1` > 200 µM

Moving on to `O=C(NN=Cc1ccc(F)cc1)c1c[nH]c2ccc(OCc3ccccc3)cc2c1=O` > 200 µM

Moving on to `COc1cccc(C=NNC(=O)c2c[nH]c3ccc(OCc4ccccc4)cc3c2=O)c1` > 200 µM

Moving on to `Cc1ccc(C=NNC(=O)c2c[nH]c3ccc(OCc4ccccc4)cc3c2=O)cc1` > 200 µM

Moving on to `O=C(NN=Cc1ccccc1F)c1c[nH]c2ccc(OCc3ccccc3)cc2c1=O` > 200 µM

Moving on to `Cc1ccccc1C=NNC(=O)c1c[nH]c2ccc(OCc3ccccc3)cc2c1=O` 160 µM

----------
Provide the recorded SI = CC50/EC50 for the entries that follow.
System: HCV (JFH-1 strain) in Huh7.5 cells
assay text: Cell-based HCV replicon assay (RT-qPCR of HCV RNA in infected Huh7.5 cells)
Parameters: species or system hepatitis C virus
setup conditions: selectivity index, CC50 (Huh-7.5, XTT) / EC50 (HCV replicon)
Procedure: The plasmid encoding the full genome of […] (JFH-1) strain (kindly provided by Wakita T) was used for in-vitro transcription to produce approximately high titer stocks of cell culture-produced virus (HCVcc) as previously described ([37]). […] Target compounds 13-25 were evaluated in a cell-based viral replication surrogate assay known as the replicon system ([39]). […]
I only need the number, thanks.

Look up SI = CC50/EC50: Cc1cccc(C=NNC(=O)c2c[nH]c3ccc(OCc4ccccc4)cc3c2=O)c1 [Compound 22] 2.2

Moving on to O=C(NN=Cc1cccc(Cl)c1)c1c[nH]c2ccc(OCc3ccccc3)cc2c1=O [Compound 21] 2.5

Moving on to Cc1ccccc1C=NNC(=O)c1c[nH]c2ccc(OCc3ccccc3)cc2c1=O [Compound 23] 2.2

----------
Provide the recorded CC50 at 72 h for the entries that follow.
assay text: XTT cytotoxicity assay
Type: cell-based
setup conditions: human, Huh-7.5 cells
Method: The cytotoxicity of compounds to Huh-7.5 cells was measured in parallel with the HCV replication assay based on the cleavage of the yellow tetrazolium salt XTT® (sodium 3-[1 (phenylaminocarbonyl)-3, 4-tetrazolium]-bis(4-methoxy-6-nitro)benzene sulfonic acid) to generate an orange formazan dye by metabolic function of alive and active cells. […] The cell cytotoxicity was determined using XTT proliferation assay kit (Sigma-Aldrich) following the manufacturer’s instructions. […]

Look up CC50 at 72 h: `O=C(NN=Cc1cccc(Cl)c1)c1c[nH]c2ccc(OCc3ccccc3)cc2c1=O` 90 µM

Moving on to `COc1ccccc1C=NNC(=O)c1c[nH]c2ccc(OCc3ccccc3)cc2c1=O` > 200 µM

Moving on to CC(C)OC(=O)[C@H](C)N[P@](=O)(OC[C@H]1O[C@@H](n2ccc(=O)[nH]c2=O)[C@](C)(F)[C@@H]1O)Oc1ccccc1 [Sofosbuvir, sofosbuvir, reference compound] > 500 µM

Moving on to `O=C(NN=Cc1cccc(F)c1)c1c[nH]c2ccc(OCc3ccccc3)cc2c1=O` > 200 µM

Moving on to `Cc1cccc(C=NNC(=O)c2c[nH]c3ccc(OCc4ccccc4)cc3c2=O)c1` 100 µM

Moving on to `O=C(NN=Cc1ccccc1)c1c[nH]c2ccc(OCc3ccccc3)cc2c1=O` > 200 µM

Moving on to `COc1ccc(C=NNC(=O)c2c[nH]c3ccc(OCc4ccccc4)cc3c2=O)cc1` > 200 µM

Moving on to `O=C(NN=Cc1ccc(Cl)cc1)c1c[nH]c2ccc(OCc3ccccc3)cc2c1=O` > 200 µM
